Taken from ChEMBL document CHEMBL6109180.

# System: HeLa
# assay-explanation: Inhibition of recombinant APC/C/cdc20 (unknown origin) in metaphase-synchronized human HeLa cells co-expressing GST-tagged UBA1/UBE2C/methylated ubiquitin using RD680-labeled securin as substrate at 100 uM measured after 45 mins in presence of ATP by immuno-precipitation method
# Type: cell-based
Calls of active or inactive are those of the source. The rule behind the calls is not given here. Bridge positions count the residues as written; N and C are the ends. Peptide text beside a SMILES is read from it.

compound	inhibition
CC(=O)N[C@H](C(=O)N[C@@H](Cc1cnc[nH]1)C(=O)N[C@H]1CSSC[C@@H](C(=O)N[C@@H](CCC(N)=O)C(=O)N[C@@H](CCCNC(=N)N)C(=O)N[C@H](C(N)=O)C(C)C)NC(=O)[C@H](CC(N)=O)NC(=O)[C@H](Cc2c[nH]c3ccccc23)NC(=O)[C@H](CCCNC(=N)N)NC(=O)[C@H](Cc2c[nH]c3ccccc23)NC(=O)[C@H]([C@@H](C)O)NC(=O)[C@H](CCC(=O)O)NC(=O)[C@@H]2CCCN2C(=O)[C@H](CC(=O)O)NC(=O)[C@H](CC(=O)O)NC1=O)[C@@H](C)O (Ac-THCDDPETWRWNCQRV-NH2; disulfide 3-13)	Active
CC(=O)N[C@@H](CCCNC(=N)N)C(=O)N[C@H]1CSSC[C@@H](C(=O)N[C@@H](CCCNC(=N)N)C(N)=O)NC(=O)[C@H](Cc2c[nH]c3ccccc23)NC(=O)[C@H](Cc2ccccc2)NC(=O)[C@H]([C@@H](C)O)NC(=O)[C@H](CCC(=O)O)NC(=O)[C@@H]2CCCN2C(=O)CNC(=O)[C@H](Cc2c[nH]c3ccccc23)NC(=O)[C@H](CO)NC1=O (Ac-RCSWGPETFWCR-NH2; disulfide 2-11)	Active
C[C@@H](O)[C@H](NC(=O)[C@H](CC(=O)O)NC(=O)CN)C(=O)N[C@H]1CSSC[C@@H](C(=O)N[C@@H](CCC(N)=O)C(=O)N[C@@H](CCCNC(=N)N)C(=O)N[C@@H](Cc2cnc[nH]2)C(=O)O)NC(=O)[C@H](CC(N)=O)NC(=O)[C@H](Cc2c[nH]c3ccccc23)NC(=O)[C@H](CCCNC(=N)N)NC(=O)[C@H](Cc2c[nH]c3ccccc23)NC(=O)[C@H]([C@@H](C)O)NC(=O)[C@H](CCC(=O)O)NC(=O)[C@@H]2CCCN2C(=O)[C@H](CC(=O)O)NC(=O)[C@H](CC(=O)O)NC1=O (H-GDTCDDPETWRWNCQRH-OH; disulfide 4-14)	Active

====

# subject-of-test: Anaphase-promoting complex subunit 11 (Homo sapiens) (UniProt Q9NYG5)
# Sequence (Q9NYG5 whole entry, one chain of several): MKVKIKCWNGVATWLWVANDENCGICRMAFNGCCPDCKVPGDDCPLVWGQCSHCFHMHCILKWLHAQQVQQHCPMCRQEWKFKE
# assay-explanation: Binding affinity to APC11 (unknown origin) assessed as binding free energy
Bridge positions count the residues as written; N and C are the ends. Peptide text beside a SMILES is read from it.
measured-endpoint: deltaG (kcal/mol)

compound	units-of-measure	measured-number
CC(=O)N[C@@H](CCCNC(=N)N)C(=O)N[C@H]1CSSC[C@@H](C(=O)N[C@@H](CCCNC(=N)N)C(N)=O)NC(=O)[C@H](Cc2c[nH]c3ccccc23)NC(=O)[C@H](Cc2ccccc2)NC(=O)[C@H]([C@@H](C)O)NC(=O)[C@H](CCC(=O)O)NC(=O)[C@@H]2CCCN2C(=O)CNC(=O)[C@H](Cc2c[nH]c3ccccc23)NC(=O)[C@H](CO)NC1=O (Ac-RCSWGPETFWCR-NH2; disulfide 2-11)	kcal/mol	-24.2
CC(=O)N[C@@H](CCCNC(=N)N)C(=O)N[C@H]1CSSC[C@@H](C(=O)N[C@@H](CCCNC(=N)N)C(N)=O)NC(=O)[C@H](Cc2c[nH]c3ccccc23)NC(=O)[C@H](Cc2ccccc2)NC(=O)[C@H]([C@@H](C)O)NC(=O)[C@H](CCCNC(=N)N)NC(=O)[C@@H]2CCCN2C(=O)CNC(=O)[C@H](Cc2c[nH]c3ccccc23)NC(=O)[C@H](Cc2cnc[nH]2)NC1=O (Ac-RCHWGPRTFWCR-NH2; disulfide 2-11)	kcal/mol	-25.6
CC(=O)N[C@H](C(=O)N[C@@H](Cc1cnc[nH]1)C(=O)N[C@H]1CSSC[C@@H](C(=O)N[C@@H](CCC(N)=O)C(=O)N[C@@H](CCCNC(=N)N)C(=O)N[C@H](C(N)=O)C(C)C)NC(=O)[C@H](CC(N)=O)NC(=O)[C@H](Cc2c[nH]c3ccccc23)NC(=O)[C@H](CCCNC(=N)N)NC(=O)[C@H](Cc2c[nH]c3ccccc23)NC(=O)[C@H]([C@@H](C)O)NC(=O)[C@H](CCC(=O)O)NC(=O)[C@@H]2CCCN2C(=O)[C@H](CC(=O)O)NC(=O)[C@H](CC(=O)O)NC1=O)[C@@H](C)O (Ac-THCDDPETWRWNCQRV-NH2; disulfide 3-13)	kcal/mol	-29.4
C[C@@H](O)[C@H](NC(=O)[C@H](CCCNC(=N)N)NC(=O)[C@@H]1CSSC[C@H](NC(=O)[C@H](CCCNC(=N)N)NC(=O)CN)C(=O)N[C@@H](Cc2cnc[nH]2)C(=O)N[C@@H](Cc2c[nH]c3ccccc23)C(=O)NCC(=O)N2CCC[C@H]2C(=O)N[C@@H](CCC(=O)O)C(=O)N[C@@H]([C@@H](C)O)C(=O)N[C@@H](Cc2ccccc2)C(=O)N[C@@H](Cc2c[nH]c3ccccc23)C(=O)N1)C(=O)O (H-GRCHWGPETFWCRT-OH; disulfide 3-12)	kcal/mol	-19.4
CC(=O)N[C@@H](CCCNC(=N)N)C(=O)N[C@H]1CSSC[C@@H](C(=O)N[C@@H](CCCNC(=N)N)C(N)=O)NC(=O)[C@H](Cc2c[nH]c3ccccc23)NC(=O)[C@H](Cc2ccccc2)NC(=O)[C@H]([C@@H](C)O)NC(=O)[C@H](CCC(=O)O)NC(=O)[C@@H]2CCCN2C(=O)CNC(=O)[C@H](Cc2c[nH]c3ccccc23)NC(=O)[C@H](Cc2cnc[nH]2)NC1=O (Ac-RCHWGPETFWCR-NH2; disulfide 2-11)	kcal/mol	-21.1

====

// reported deltaG per item
# subject-of-test: Anaphase-promoting complex subunit 11 (Homo sapiens) (UniProt Q9NYG5)
# assay-explanation: Binding affinity to APC11 (unknown origin) assessed as binding free energy
Bridge positions count the residues as written; N and C are the ends. Peptide text beside a SMILES is read from it.
measured-endpoint: deltaG (kJ/mol)

compound	measured-endpoint	measured-number
CC(=O)N[C@H]1CSSC[C@@H](C(=O)N[C@H](C(=O)N[C@@H](Cc2c[nH]c3ccccc23)C(=O)N[C@@H](CCCNC(=N)N)C(=O)N[C@@H](Cc2ccc(O)cc2)C(N)=O)[C@@H](C)O)NC(=O)[C@H](Cc2cnc[nH]2)NC(=O)[C@H](Cc2c[nH]c3ccccc23)NC(=O)[C@H](CCC(N)=O)NC(=O)[C@H](CO)NC(=O)[C@@H]2CCCN2C(=O)CNC(=O)[C@H](C)NC(=O)[C@H](CCC(=O)O)NC1=O (Ac-CEAGPSQWHCTWRY-NH2; disulfide 1-10)	deltaG	-76.6
C[C@@H](O)[C@H](NC(=O)[C@H](CC(=O)O)NC(=O)CN)C(=O)N[C@H]1CSSC[C@@H](C(=O)N[C@@H](CCC(N)=O)C(=O)N[C@@H](CCCNC(=N)N)C(=O)N[C@@H](Cc2cnc[nH]2)C(=O)O)NC(=O)[C@H](CC(N)=O)NC(=O)[C@H](Cc2c[nH]c3ccccc23)NC(=O)[C@H](CCCNC(=N)N)NC(=O)[C@H](Cc2c[nH]c3ccccc23)NC(=O)[C@H]([C@@H](C)O)NC(=O)[C@H](CCC(=O)O)NC(=O)[C@@H]2CCCN2C(=O)[C@H](CC(=O)O)NC(=O)[C@H](CC(=O)O)NC1=O (H-GDTCDDPETWRWNCQRH-OH; disulfide 4-14)	deltaG	-123
CC(=O)N[C@H]1CSSC[C@@H](C(=O)N[C@@H](CCC(=O)O)C(=O)N[C@@H](Cc2c[nH]c3ccccc23)C(=O)N[C@@H](CCCNC(=N)N)C(=O)N[C@@H](Cc2ccc(O)cc2)C(N)=O)NC(=O)[C@H](Cc2cnc[nH]2)NC(=O)[C@H](Cc2c[nH]c3ccccc23)NC(=O)[C@H](CCC(N)=O)NC(=O)[C@H](CO)NC(=O)[C@@H]2CCCN2C(=O)CNC(=O)[C@H](C)NC(=O)[C@H](CCC(=O)O)NC1=O (Ac-CEAGPSQWHCEWRY-NH2; disulfide 1-10)	deltaG	-82
